Listed here: items and their measured activation.
Target: G-protein coupled receptor 151 (Homo sapiens)
Experiment: activators of human GPR151, primary screen, cell-based, PathHunter beta-arrestin, luminescence (AID 1508602);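 note: 0% = median of compound wells and 100% = cells with positive control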
Settings: PathHunter beta-arrestin GPR151 cells, at 11.2 µM, active compounds read high
Among all 650,000 compounds or so, about 6,800 (1%) were called active. The list comes from a sample in which actives are over-represented; it also holds close analogues and randomly drawn compounds.
measure.name: activation (%)

1. CCOc1ccc(C2C(C(=O)Nc3ccc(C)c(F)c3)c3ccccc3C(=O)N2CCN2CCOCC2)cc1 (stereo not given)	-1.65
2. COc1ccccc1Nc1nc(-c2ccc(Br)cc2)cs1	-0.402
3. Cc1ccc(NC(=O)Cn2c(C)c(C=O)c3ccccc32)cc1C	1.3
4. COc1ccc(N/C=C(/C#N)c2nc(-c3ccc(F)cc3)cs2)c(OC)c1	1.79
5. COc1ccc(C2(C)NC(=O)N(CC(=O)NCCc3ccccc3)C2=O)cc1 (stereo not given)	-0.0334

====

Molecular target: G-protein coupled receptor 151 (Homo sapiens) (UniProt Q8TDV0)
Sequence (Q8TDV0 whole entry, looked up): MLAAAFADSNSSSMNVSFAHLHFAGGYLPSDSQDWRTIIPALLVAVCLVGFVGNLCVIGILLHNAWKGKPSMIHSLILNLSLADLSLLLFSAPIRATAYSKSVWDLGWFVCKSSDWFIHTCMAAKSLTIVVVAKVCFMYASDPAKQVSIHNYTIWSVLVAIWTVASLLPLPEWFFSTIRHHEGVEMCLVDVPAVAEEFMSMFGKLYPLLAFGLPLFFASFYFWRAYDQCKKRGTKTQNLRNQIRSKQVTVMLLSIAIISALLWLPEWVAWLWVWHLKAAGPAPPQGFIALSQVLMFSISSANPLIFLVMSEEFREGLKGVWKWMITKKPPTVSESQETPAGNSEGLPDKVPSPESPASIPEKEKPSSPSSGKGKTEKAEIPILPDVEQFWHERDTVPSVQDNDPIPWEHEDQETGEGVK
Assay: activators of human GPR151, primary screen, cell-based, PathHunter beta-arrestin, luminescence (AID 1508602);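 note: 0% = median of compound wells and 100% = cells with positive control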
Details: PathHunter beta-arrestin GPR151 cells, at 11.2 µM
About 6,800 (1%) of roughly 650,000 compounds were called active. Rule as the data show it: active = activation above about 4.9%; inactive = the rest. The sample holds actives, similar compounds and a random draw of the others, so the mix is not that of the screen.
Outcomes: True for active, False for inactive

1. COc1ccc(CCNC(=S)Nc2c(C)n(C)n(-c3ccccc3)c2=O)cc1OC	False
2. COc1ccc(CCNC(=S)NCc2cc(C)n(C)n2)cc1OC	True
3. Cc1nc(N2CCN(C)CC2)c2c(C)c(C(=O)NC3CCCCC3)sc2n1	False
4. CCc1nnc(NC(=O)CSc2nc(C)cc(C)n2)s1	False
5. CC12CCC(C(=O)NC3CCCCC3)(OC1=O)C2(C)C (stereo unspecified)	True
6. COc1cc([N+](=O)[O-])ccc1NC(=O)C1CCCC1	False

====

Molecular target: G-protein coupled receptor 151 (Homo sapiens) (UniProt Q8TDV0)
Test: activators of human GPR151, primary screen, cell-based, PathHunter beta-arrestin, luminescence (AID 1508602);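 note: 0% = median of compound wells and 100% = cells with positive control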
Conditions: PathHunter beta-arrestin GPR151 cells, at 11.2 µM
About 6,800 (1%) of roughly 650,000 compounds were called active. Rule as the data show it: active = activation above about 4.9%; inactive = the rest. What follows is part of a selection rich in actives, with near analogues and random picks from the rest.
Outcomes: T for active, F for inactive

1) COc1ccc(S(=O)(=O)N(C)CC(=O)NCc2ccccn2)cc1C	F
2) O/N=C(\C(=N\O)c1ccccc1)c1ccccc1	F
3) CC(C)(C)c1ccc(C2/C(=C(/O)c3ccccc3)C(=O)C(=O)N2c2ccc(OCC(=O)O)cc2)cc1 (stereo not given)	F
4) Cc1ccc(N(CC(=O)N/N=C/c2ccc(C)c(C)c2C)S(C)(=O)=O)cc1	F
5) Cc1cc(N2C(=O)c3ccc(Oc4ccc(NC(=O)CSc5ccc(Cl)cc5)cc4)cc3C2=O)no1	F
6) CC(NC(=O)C12CC3CC(CC(C3)C1)C2)c1ccccc1 (stereo not given)	F
7) CCOc1ccc(-c2ccc(SCC(=O)Nc3cc(C)on3)nn2)cc1	F
8) COc1cccc(CNC(=O)Cn2c(=O)oc3ccccc32)c1	F
9) O=C(Nc1ccc2cn[nH]c2c1)c1ccc(F)cc1F	F
10) O=C(CC1C(=O)NCCN1C(=O)c1ccc([N+](=O)[O-])cc1)Nc1cccc(Cl)c1 (stereo not given)	T

====

Molecular target: G-protein coupled receptor 151 (Homo sapiens) (UniProt Q8TDV0)
Experiment: activators of human GPR151, primary screen, cell-based, PathHunter beta-arrestin, luminescence (AID 1508602);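 note: 0% = median of compound wells and 100% = cells with positive control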
Conditions: PathHunter beta-arrestin GPR151 cells, at 11.2 µM
Among all 650,000 compounds or so, about 6,800 (1%) were called active. Cut-off read from the data, not from the text of the source: active = activation above about 4.9%; inactive = the rest. The full list was thinned out, with actives kept by preference.
Outcomes: Y = active, N = inactive

1) Cc1nn(CC(=O)N(CC2CCCO2)C2CCS(=O)(=O)C2)c(C)c1[N+](=O)[O-] (centres undefined)	N
2) CNC(=O)C(=O)Nc1cc(OC)ccc1OC	N
3) O=c1c2c([nH]c(=S)n1Cc1ccco1)-c1ccccc1CC21CCCCC1	N
4) O=C(O)c1ccc(-c2nc(-c3cccs3)c(-c3cccs3)[nH]2)cc1	N
5) CC(C)COC(=O)c1ccc(NC(=O)C2C3C=CC(C3)C2C(=O)O)cc1 (centres undefined)	Y
6) Cn1c2ccccc2c2nnc(SCCCCC(=O)Nc3cccc4ccccc34)nc21	N
7) O=C(c1cn[nH]c1-c1ccc([N+](=O)[O-])cc1)N1CCOCC1	N
8) CCn1cc(CNC(=S)Nc2cc(OC)ccc2OC)cn1	N
9) c1ccc(-c2nc(-c3cccs3)[nH]c2-c2cccs2)cc1	Y
10) COc1ccc(-c2nc(N)c3[nH]cnc3n2)cc1	N
11) CCOC(=O)c1cnc2c(C)cc(Cl)cc2c1Nc1cccc([N+](=O)[O-])c1	N
12) Nc1cc(=O)nc(SCC(=O)Nc2nccs2)n1-c1ccc(F)cc1	Y
13) Cn1c2ccccc2c2nnc(SCC(=O)Nc3ccc(Cl)cn3)nc21	N
14) O=C(COc1ccc(CO)cc1)Nc1ccc(Cl)c(Cl)c1	Y
15) Cc1nc(C)n(CCC(=O)N2CCN(Cc3ccccc3F)C[C@@H]2C(C)C)n1	N
16) CN(Cc1cccc(C(F)(F)F)c1)C(=O)CC1C(=O)NCCN1Cc1ccccc1 (centres undefined)	N
17) COc1ccc(OC)c(NC(=S)Nc2ccccn2)c1	Y
18) COc1ccc(NC(=O)c2ccc(F)c3ccccc23)cc1	N
19) NC1=NC(=O)/C(=C/c2ccccc2C(F)(F)F)S1	N
20) CCCC(=O)Nc1ccc(S(=O)(=O)N(Cc2ccsc2)C2CC2)cc1	N
21) CCN(CC)c1ccc(CN2C[C@@H](NCc3ccc4ccccc4c3)C[C@H]2C(=O)NC)cc1	N
22) Cc1cc(NC(=O)CSc2nc(=O)cc(N)n2-c2ccc(F)cc2)no1	N
23) O=C(COc1ccc(Cl)cc1)Nc1ccc(F)c(F)c1	N
24) O=C(CCc1nnc(Cc2cccc(C(F)(F)F)c2)o1)N1CCSCC1	N
25) Cn1c2ccccc2c2nnc(SCC(=O)Nc3ccc(NC(=O)C4CC4)cc3)nc21	Y
26) C=CCSc1nc2c(c(=O)n1CC1CCCC1)C1(CCCC1)Cc1ccccc1-2	N
27) COc1ccc(C(=O)CSc2nc3sc4c(c3c(=O)n2-c2ccc(Cl)cn2)CCCC4)c(F)c1	Y
28) O=C(Nc1ccccc1)c1cnc(NCCN2CCOCC2)s1	N
29) CCCCOC(=O)c1ccc(NC(=O)C2C3C=CC(O3)C2C(=O)O)cc1 (centres undefined)	N
30) CC(C)CCSc1nc2c(c(=O)n1Cc1ccco1)C1(CCCCC1)Cc1ccccc1-2	Y
31) O=C(CSc1ccc(F)cc1)Nc1nccs1	N
32) Cc1ccc(OCC(=O)Nc2ccc(C)c(Cl)c2)cc1C	N
33) O=C(c1cc([N+](=O)[O-])ccc1NC1CCCCC1)N1CCOCC1	Y
34) COc1ccc(OC)c(NC(=O)CN(c2cccc(C)c2C)S(C)(=O)=O)c1	Y
35) CCN(CC)CCN1C(=O)C(=O)/C(=C(\O)c2ccc(Cl)cc2)C1c1ccc([N+](=O)[O-])cc1 (centres undefined)	N
36) COc1ccc(NC(=O)Cn2c(-c3ccc(OC)cc3)cn(-c3ccc(C)cc3)c2=O)cc1	Y
37) COc1cc(OC)cc(-c2nc(-c3ccccc3)c(-c3cccs3)[nH]2)c1	N
38) CCCCSc1nc2sc3c(c2c(=O)n1-c1ccc(OC)cc1)CCCC3	N
39) O=C(Cc1coc2ccc3ccccc3c12)NC1CCN(Cc2ccccc2)CC1	N
40) COc1ccc(C(=O)Nc2ccc(S(=O)(=O)N(C)C3CCCCC3)cc2)cc1	N
41) COc1ccc(C(=O)Nc2ccc(S(=O)(=O)NC(C)C)cc2)cc1	Y
42) COc1ccc(-n2ccnc2SCC(=O)Nc2ccc(C)cc2)cc1	N
43) COc1ccccc1NC(=O)Nc1ccnn1C1CCN(C(=O)CCc2ccccc2)CC1	N
44) O=C(CCc1nnc(CCCCc2ccccc2)o1)N1CCC(N2CCSCC2)CC1	Y

====

Listed here: items and their measured activation.
Target: G-protein coupled receptor 151 (Homo sapiens) (UniProt Q8TDV0)
Test: activators of human GPR151, primary screen, cell-based, PathHunter beta-arrestin, luminescence (AID 1508602);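 note: 0% = median of compound wells and 100% = cells with positive control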
Details: PathHunter beta-arrestin GPR151 cells, at 11.2 µM, active compounds read high
About 6,800 (1%) of roughly 650,000 compounds were called active. For the sample, actives were picked, then their nearest neighbours and some compounds at random.
measure.name: activation (%)

1. COCCNC(=S)N1CCN(c2ccccc2OC)CC1	12.1
2. Cc1cccc(Nc2nc(-c3ccc(I)cc3)cs2)c1	-1.86
3. Cn1ncc2c(NNC(=O)Cc3cccc4ccccc34)ncnc21	6.03
4. COc1ccc(C(=O)CCNC(C(=O)O)C(C)O)cc1 (stereo not given)	-0.172
5. CC(C)N1CCc2c(sc(NC(=O)Cc3ccccc3)c2C#N)C1	4.91
6. Cc1ccc(S(=O)(=O)NCC(c2cccnc2)N2CCN(c3ccc(F)cc3)CC2)cc1 (stereo not given)	4.96
7. O=S(=O)(c1ccc2c(c1)CCCC2)N1CCOC(c2ccccc2)C1 (stereo not given)	-1.43
8. CSc1ccc(/C=N/NC(N)=S)cc1	0.328
9. c1ccc(N2CCN(c3ccccn3)CC2)nc1	-0.177
10. Cc1ccc(CSCc2nnc(SCC(=O)Nc3nccs3)n2C)cc1	0.977
11. Cc1ccc(-n2cc(-c3ccccc3)c3c(N4CC(C)OC(C)C4)ncnc32)cc1 (stereo not given)	7.76
12. CC(C)(C)C(=O)Nc1ccnn1C1CCN(Cc2ccccc2C(F)(F)F)CC1	0.711
13. CCOC(=O)N1CCC(NC(=O)c2ccc(N3CC4CC(C3)c3cccc(=O)n3C4)c(NC(=O)c3ccc(OC)cc3)c2)CC1 (stereo not given)	-1.15
14. CC1C(=O)NC(=O)N1c1ccc(Cl)cc1 (stereo not given)	2.6
15. COCCNC(=S)N1CCN(c2ncccn2)CC1	-1.93
16. COCCn1c(=NC(=O)c2c(C)cnn2C)sc2cc(Cl)ccc21	-0.961
17. Cc1ccc(CN2CCOCC2)c(C)c1	0.704
18. COc1ccc(N2CCN(c3ncnc4c3c(-c3ccccc3)cn4-c3ccc(C)cc3)CC2)cc1	-2.7
19. CC1CN(c2ncnc3c2c(-c2ccccc2)cn3-c2cccc(C(F)(F)F)c2)CC(C)O1 (stereo not given)	-1.46
20. Cc1ccc(N2C(=O)CC(NCc3ccc(F)cc3)C2=O)cc1 (stereo not given)	-0.0057
21. CCCN(CCC)C(=O)c1cc2cccc(OC)c2oc1=O	2.62
22. NC(=O)c1c(NC(=O)c2ccccc2F)sc2c1CCCCCC2	1.12
23. Oc1ccc(-c2cnc3ccc(NC4CCOCC4)nn23)cc1	-0.504
24. COc1cccc(N(C(=O)c2csnn2)C(C(=O)NC(C)(C)C)c2ccc(F)cc2)c1 (stereo not given)	0.396
25. C/C(=N/N1CCN(Cc2ccc(C)cc2C)CC1)c1ccc([N+](=O)[O-])cc1	9.21
26. CC(C)Nc1cc(N2CCC3(CC2)OCCO3)c2noc3c2c1C(=O)c1ccccc1-3	3.8
27. C(=N\N1CCN(c2ccccn2)CC1)/C1=C(N2CCOCC2)C(=C/c2ccccc2)/CC1	6.77
28. CCCn1ncc(CN2CCN(C3CCN(C(C)C)CC3)C(CCO)C2)c1C (stereo not given)	1.43
29. Cc1ccc(N2C(=O)CC(NCCN3CCOCC3)C2=O)cc1 (stereo not given)	14
30. COc1ccc(/C=N/N2CCN(c3ccccn3)CC2)cc1	0.849
31. CC(=O)Nc1nc(C)c(-c2csc(Nc3ccc(C)cc3)n2)s1	0.136
32. Cc1cccc(CN2CCC(n3nccc3NC(=O)C(C)(C)C)CC2)c1	-0.39
33. CCCOc1ccc([N+](=O)[O-])cc1C1NC(=S)NC(C)=C1C(=O)OC (stereo not given)	-1.65
34. COc1ccc2cc(C#N)c(SC)nc2c1	0.673
35. Cc1ccc(-c2csc(Nc3ccccc3)n2)c(C)c1	0.521
36. CC(=O)Nc1nc(C(=O)Nc2nc(-c3sc(C)nc3C)cs2)cs1	5.72
37. Cc1nc(C)c(-c2csc(Nc3ccc(Br)cc3)n2)s1	-0.252
38. Brc1cccc(-c2cnc3ccc(NC4CCOCC4)nn23)c1	-0.245
39. CC(=O)N1CCc2c(sc(NC(=O)CCS(=O)(=O)c3ccccc3)c2C#N)C1	-0.234
40. Cn1nc2c(nc1=O)[nH]c1ccccc12	-0.513
41. CCOc1ccc(CCNC(=O)Cn2c(-c3cncs3)nc3ccccc32)cc1OCC	-0.67
42. Cc1ccc(NC(=O)CSc2nc3cc4c(cc3cc2C#N)OCCO4)cc1	-1.17
43. COc1cccc(NC(=O)c2cc([N+](=O)[O-])ccc2NC(=O)CNCc2cccnc2)c1	-1.03
44. CCOC(=O)N1CCc2c(sc(NC(=O)CCSc3ccccc3)c2C#N)C1	0.685
45. COc1ccccc1N1CCN(CCNC(=O)c2ccc(F)cc2)CC1	-2.55
